Each entry below carries its recorded self-cleavage kobs at 40 uM GlcN6P.
B1: glmS ribozyme (parent)
chain: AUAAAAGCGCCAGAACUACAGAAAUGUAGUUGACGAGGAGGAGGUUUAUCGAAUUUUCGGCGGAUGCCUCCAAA

Variants of: B1
methodSummary: self-cleavage kobs at 40 uM GlcN6P; higher = faster cleavage; RNA array
protocolConditions: with glucosamine-6-phosphate
Variants at the floor of the assay were thinned out.
Field format: number, assumed s⁻¹, no unit text.

Some entries whose results are on file:
mutationAnnotation | self-cleavage kobs at 40 uM GlcN6P [s⁻¹]
C10A C61A C67G | 4.33e-05
U31G | 0.000403
A15U U31A G32A A36U U57A C58G C71U | 5.17e-05

Write down self-cleavage kobs at 40 uM GlcN6P measured for item A14G U46A
0.000166

For the variant A36C C58A U65A C68G , report self-cleavage kobs at 40 uM GlcN6P.
0.000139

Please indicate self-cleavage kobs at 40 uM GlcN6P recorded for U31G U54A
0.000582

Give a short answer stating reported self-cleavage kobs at 40 uM GlcN6P for G41U .
0.000171

Please supply the value of reported self-cleavage kobs at 40 uM GlcN6P for the item G37A G38U C50G C67U
8.1e-05

Data origin, for the record: the supplement of paper PMC7125110
